The measurements presented in this section are drawn from paper PMC5108443.

measurement_notes: Steady-state plasma pharmacokinetics of LCZ696 analytes
Assay type: in vivo, human
particulars: human, plasma, po, 200 mg
property: Cmax (µg/mL)
Numbers only, in µg/mL.

Worked examples, 2 compounds total:
Prompt line: For CCOC(=O)[C@H](C)C[C@@H](Cc1ccc(-c2ccccc2)cc1)NC(=O)CCC(=O)O , what is its reported Cmax?
Response line: 2.41

Prompt line: For C[C@H](C[C@@H](Cc1ccc(-c2ccccc2)cc1)NC(=O)CCC(=O)O)C(=O)O , what is its reported Cmax?
Response line: 16.3

With those in mind, consider the next compound.
Prompt line: For CCCCC(=O)N(Cc1ccc(-c2ccccc2-c2nnn[nH]2)cc1)[C@H](C(=O)O)C(C)C [Valsartan, valsartan, reference compound] , what is its reported Cmax?
Response line: 6.04
